This collection of values is drawn from ChEMBL document CHEMBL4257464.

- test_target: Isocitrate lyase 1 (Mycobacterium tuberculosis (strain CDC 1551 / Oshkosh))
- assay_notes: Inhibition of Mycobacterium tuberculosis ICL1 expressed in Escherichia coli BL21(DE3) using DL-isocitrate as substrate incubated for 25 mins in presence of MgCl2 by 1H NMR method
For each entry below, report its pIC50 value.
Answers are plain numbers, as −log10 of the molar value.

Known results for compounds:
> print(dat)
                         compound  reported
1   COC(=O)/C=C/C(=O)c1ccc(OC)cc1      3.60
2  O=C(O)C(=O)CBr [BROMOPYRUVATE]      4.76
3  C=C(CC(=O)O)C(=O)O [ITACONATE]      4.53

Need pIC50, item O=C(O)CC[N+](=O)[O-] 4.83

###

- test_target: Isocitrate lyase 1 (Mycobacterium tuberculosis (strain CDC 1551 / Oshkosh)) (UniProt P9WKK6)
- assay_notes: Inhibition of Mycobacterium tuberculosis ICL1 expressed in Escherichia coli BL21(DE3) at 100 uM using DL-isocitrate as substrate incubated for 25 mins in presence of MgCl2 by 1H NMR method
Active and inactive are the calls of the source. The rule behind the calls is not given here.
A correct response names exactly one class from True (active), False (inactive)

Please review the entries below; each comes with its answer.
> print(dat)
                                   compound  assigned.label
1     CCCCc1cc(C(=O)Cc2cc3ccccc3o2)c(O)cc1O           False
2             COC(=O)/C=C/C(=O)c1ccc(OC)cc1           False
3     CCCc1cc(C(=O)Cc2cc3ccccc3o2)c(O)cc1OC           False
4  COc1ccc(C(=O)COC(=O)c2oc3ccc(OC)cc3c2C)c(OC)c1           False

Recorded call for CCOC(=O)c1cc2cc(CC(=O)c3ccc(O)cc3O)ccc2o1 ? True

Recorded call for CCc1cc(C(=O)Cc2cc3ccccc3o2)c(O)cc1OC ? False

Recorded call for CCCCCCc1cc(C(=O)Cc2cc3ccccc3o2)c(O)cc1O ? False

Recorded call for O=C(O)C(=O)CBr [BROMOPYRUVATE] ? True

Recorded call for O=C(O)CC[N+](=O)[O-] ? True

Recorded call for CCOC(=O)c1cc2cc(CC(=O)c3ccc(OC)cc3O)ccc2o1 ? False

Recorded call for COc1cc(OC)c(C(=O)COC(=O)c2oc3ccccc3c2C)c(OC)c1 ? False

Recorded call for CCOC(=O)c1ccc(CC(=O)c2oc3cc(O)ccc3c2C)o1 ? True

###

- test_target: Isocitrate lyase 1 (Mycobacterium tuberculosis (strain CDC 1551 / Oshkosh)) (UniProt P9WKK6)
- Sequence (whole entry): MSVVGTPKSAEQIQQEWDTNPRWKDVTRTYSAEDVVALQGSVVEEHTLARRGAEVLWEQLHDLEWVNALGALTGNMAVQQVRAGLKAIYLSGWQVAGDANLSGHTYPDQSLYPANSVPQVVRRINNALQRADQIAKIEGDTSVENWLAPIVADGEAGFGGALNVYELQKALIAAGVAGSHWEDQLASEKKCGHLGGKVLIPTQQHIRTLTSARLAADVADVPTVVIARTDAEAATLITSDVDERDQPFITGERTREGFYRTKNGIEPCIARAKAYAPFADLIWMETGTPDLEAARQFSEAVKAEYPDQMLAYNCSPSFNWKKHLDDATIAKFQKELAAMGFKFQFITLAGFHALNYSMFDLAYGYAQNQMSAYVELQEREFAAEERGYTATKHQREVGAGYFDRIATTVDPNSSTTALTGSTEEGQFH
- assay_notes: Binding affinity to Mycobacterium tuberculosis ICL1 expressed in Escherichia coli BL21(DE3) assessed as melting temperature at 1 mM in presence of MgCl2 by SYPRO orange dye based fluorescence assay (reference value: 43 degC)
readout_label: Tm

Known results for compounds:
> print(dat)
                         compound  reported
1  O=C(O)C(=O)CBr [BROMOPYRUVATE]   52.5 °C
2            O=C(O)CC[N+](=O)[O-]   40.9 °C
3  C=C(CC(=O)O)C(=O)O [ITACONATE]   53.3 °C

Need Tm, item COC(=O)/C=C/C(=O)c1ccc(OC)cc1 37.6 °C

###

- test_target: Isocitrate lyase 1 (Mycobacterium tuberculosis (strain CDC 1551 / Oshkosh)) (UniProt P9WKK6)
- assay_notes: Inhibition of Mycobacterium tuberculosis ICL1 expressed in Escherichia coli BL21(DE3) at 100 uM using DL-isocitrate as substrate incubated for 25 mins in presence of MgCl2 by 1H NMR method
The source made the active and inactive calls. No cut-off for these calls is given here.
A correct response names exactly one class from active, inactive

Please review the entries below; each comes with its answer.
> print(dat)
                                   compound  assigned.label
1  CCOC(=O)c1oc2ccc(CC(=O)c3c(C)cc(O)cc3O)cc2c1C        inactive
2  COc1ccc2oc(C(=O)OCC(=O)c3ccc(C)s3)c(C)c2c1        inactive

Turning to the following compound.
Recorded call for C=C(CC(=O)O)C(=O)O [ITACONATE] ? active
